All values here come from ChEMBL document CHEMBL3526133.

Each item that follows carries a reported pIC50.
# testedOn: Cytochrome P450 2C19 (Homo sapiens)
# Sequence (P33261 whole entry): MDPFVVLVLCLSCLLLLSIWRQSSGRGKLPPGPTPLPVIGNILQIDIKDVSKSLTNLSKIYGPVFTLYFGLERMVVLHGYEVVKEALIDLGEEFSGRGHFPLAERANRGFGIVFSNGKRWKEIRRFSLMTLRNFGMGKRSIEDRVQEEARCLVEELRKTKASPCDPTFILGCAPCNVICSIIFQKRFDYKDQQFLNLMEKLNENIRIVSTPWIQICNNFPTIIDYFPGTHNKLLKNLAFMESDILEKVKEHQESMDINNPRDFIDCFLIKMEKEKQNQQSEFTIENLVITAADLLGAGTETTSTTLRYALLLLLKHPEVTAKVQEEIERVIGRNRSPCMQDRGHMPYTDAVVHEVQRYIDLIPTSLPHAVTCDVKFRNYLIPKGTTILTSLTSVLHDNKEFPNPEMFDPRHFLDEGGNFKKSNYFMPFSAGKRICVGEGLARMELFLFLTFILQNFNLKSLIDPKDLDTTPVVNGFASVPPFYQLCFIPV
The scale used: pIC50 is minus the common logarithm of the concentration in molar units.

molecule | pIC50
Cc1c(OCC(F)(F)F)ccnc1C[S+]([O-])c1nc2ccccc2[nH]1 (stereo not drawn) [LANSOPRAZOLE] | 4.87

Moving on to another molecule below.
In: I am curious: what pIC50 value has been reported for COc1ccc(CCN2CCC(Nc3nc4ccccc4n3Cc3ccc(F)cc3)CC2)cc1 [ASTEMIZOLE] ?
Out: 4.86

----------
The following compounds have recorded IC50 on Cytochrome P450 2D6 (Homo sapiens).
Sequence (P10635 whole entry): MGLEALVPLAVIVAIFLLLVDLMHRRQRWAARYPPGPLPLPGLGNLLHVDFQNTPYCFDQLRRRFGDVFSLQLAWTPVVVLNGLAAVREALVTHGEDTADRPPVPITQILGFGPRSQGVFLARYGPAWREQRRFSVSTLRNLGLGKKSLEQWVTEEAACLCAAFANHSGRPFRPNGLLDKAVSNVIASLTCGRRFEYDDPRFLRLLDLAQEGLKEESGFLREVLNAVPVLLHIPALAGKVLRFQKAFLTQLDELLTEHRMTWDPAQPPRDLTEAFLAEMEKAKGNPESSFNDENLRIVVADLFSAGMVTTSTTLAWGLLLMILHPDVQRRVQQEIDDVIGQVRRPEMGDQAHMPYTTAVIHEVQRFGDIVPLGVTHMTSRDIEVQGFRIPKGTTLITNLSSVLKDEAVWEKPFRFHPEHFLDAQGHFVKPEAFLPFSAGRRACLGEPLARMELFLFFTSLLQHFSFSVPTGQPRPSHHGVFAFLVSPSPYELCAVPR
Quick reminder: number only, in µM, skip the unit.

Solved cases (2 shown):
compound | readoutLabel | val
O=c1c(O)c(-c2ccc(O)c(O)c2)oc2cc(O)cc(O)c12 | IC50 | 18.8
Cc1c(OCC(F)(F)F)ccnc1C[S+]([O-])c1nc2ccccc2[nH]1 (stereo not given) | IC50 | 2.9

In: Checklist item: IC50 tested on Cytochrome P450 2D6 (Homo sapiens), entry Clc1ccccc1C(c1ccccc1)(c1ccccc1)n1ccnc1 , value?
Out: 0.883
